# protocol: Human liver microsome stability
# Assay type: in vitro ADME
# measurementContext: human, liver microsomes
propertyMeasured: microsomal CLint at 1 μM (µL/min/mg)
Your answer is read as µL/min/mg, so omit the unit and give the number.

Request: What value of microsomal CLint at 1 μM has been reported for the following compound? N#C/C=C/c1ccc2c(S(=O)(=O)n3nc(Nc4ccc(C#N)c(Cl)c4)nc3N)cccc2c1 [Compound 20]
Response: 25.8

---

# protocol: In vivo pharmacokinetics, plasma and brain
# Design: species or system Balb/C male mice
# measurementContext: male, Balb/C, mouse, plasma, po, 250 mg/kg, plasma, 250 mg/kg intragastric, mice group 3
propertyMeasured: AUC(0-inf)
Write the numeric value and follow it with the unit.

Request: What value of AUC(0-inf) has been reported for the following compound? Nc1nc(Nc2ccc(Cl)cc2)nn1S(=O)(=O)c1ccc2ccccc2c1 [Compound 1]
Response: 5550 ng·h/mL

---

CC50 at 48 h by entry:
# protocol: Toxicity assay in TZM-bl cells
# Assay type: cell-based
# measurementContext: human, Table 4, TZM-bl; read-out: CC50 (TZM)

Request: What value of CC50 at 48 h has been reported for the following compound? N#Cc1ccc2c(S(=O)(=O)n3nc(Nc4ccc(C#N)c(Cl)c4)nc3N)cccc2c1 [Compound 5]
Response: 6.01 µM

Request: What value of CC50 at 48 h has been reported for the following compound? N#C/C=C/c1ccc2c(S(=O)(=O)n3nc(Nc4ccc(C#N)c(Cl)c4)nc3N)cccc2c1 [Compound 20]
Response: 4.95 µM

---

# protocol: In vivo pharmacokinetics, plasma and brain
# Set-up: species or system Balb/C male mice
# measurementContext: male, Balb/C, mouse, plasma, po, 250 mg/kg, plasma, 250 mg/kg intragastric, mice group 2
propertyMeasured: Cmax (ng/mL)
Your answer is read as ng/mL, so omit the unit and give the number.

Request: What value of Cmax has been reported for the following molecule? Nc1nc(Nc2ccc(Cl)cc2)nn1S(=O)(=O)c1ccc2ccccc2c1
Response: 1170

---

# protocol: In vivo pharmacokinetics, plasma and brain
# Set-up: species or system Balb/C male mice
# measurementContext: male, Balb/C, mouse, plasma, po, 250 mg/kg, plasma, 250 mg/kg intragastric, mice group 3; read-out: AUC0-7
propertyMeasured: AUC(0-t) (ng·h/mL)
Your answer is read as ng·h/mL, so omit the unit and give the number.

Request: What value of AUC(0-t) has been reported for the following compound? Nc1nc(Nc2ccc(Cl)cc2)nn1S(=O)(=O)c1ccc2ccccc2c1 [Compound 1]
Response: 4080

---

# protocol: In vivo pharmacokinetics, plasma and brain
# Parameters: species or system Balb/C male mice
# measurementContext: male, Balb/C, mouse, plasma, po, 250 mg/kg, plasma, 250 mg/kg intragastric, mice group 3
propertyMeasured: Cmax (ng/mL)
Your answer is read as ng/mL, so omit the unit and give the number.

Request: What value of Cmax has been reported for the following molecule? Nc1nc(Nc2ccc(Cl)cc2)nn1S(=O)(=O)c1ccc2ccccc2c1 [Compound 1]
Response: 1350

---

# System: HIV-1 IIIB A17 variant (Y181C/K103N)
# protocol: HIV inhibition assay in TZM-bl cells, A17 variant
# Type: cell-based
# measurementContext: Human immunodeficiency virus 1, IIIB, TZM-bl, read-out: IC50 (TZM, A17), Table 4, TZM-bl
propertyMeasured: pIC50
Reminder that pIC50 is minus the log10 of a molar concentration.

- molecule: "Cc1cc(/C=C/C#N)cc(C)c1Nc1ccnc(Nc2ccc(C#N)cc2)n1 [Rilpivirine, rilpivirine, reference compound]"
  systemTested: "HIV-1 IIIB A17 variant (Y181C/K103N)"
  pIC50: 9.09
- molecule: "O=C1Nc2ccc(Cl)cc2[C@@](C#CC2CC2)(C(F)(F)F)O1"
  systemTested: "HIV-1 IIIB A17 variant (Y181C/K103N)"
  pIC50: 7.77

Let us examine a further case.
Request: What value of pIC50 has been reported for the following molecule? N#Cc1ccc(Nc2nc(N)n(S(=O)(=O)c3cccc4cc(C#N)ccc34)n2)cc1
Response: 7.61
